Where do these numbers come from? They come from patent US9695191B2.

- protocol.details: Metabolic stability, CD-1 mouse microsomes
- Format: in vitro ADME
- assay.conditions: % of the initial 0 minutes value at 60 min, 10 μM, 37° C.
assay.readout: Metabolic Stability 60 min mouse (%)

CN1CC(=O)N2C[C@H](NC(=O)CCC(=O)O)C[C@H]2COc2ccc(cc2)C(=O)N(C)[C@H](C(=O)NCc2ccncc2)CCC1=O [Ex. 267]: 100
CN(C)CCNC(=O)[C@@H]1CCC(=O)N(C)CC(=O)N2C[C@@H](NC(=O)Cc3c[nH]c4ccccc34)C[C@H]2COc2ccc(F)cc2C(=O)N1C [Ex. 11]: 77
CN(C)CCNC(=O)[C@@H]1CCC(=O)N(C)CC(=O)N2C[C@@H](NC(=O)Cc3cccc4ccccc34)C[C@H]2COc2ccc(F)cc2C(=O)N1C [Ex. 49]: 83

* * *

- assay.conditions: both, CD-1, mouse, 10 μM
assay.readout: Plasma Stability 240 min mouse (%)

CN(C)CC(=O)N[C@@H]1C[C@H]2COc3cccc(c3)C(=O)N(C)C[C@H](NC(=O)Cc3ccc4ccccc4c3)C(=O)N(C)CC(=O)N2C1: 95
CCCCC(=O)N[C@@H]1C[C@H]2COc3ccc(F)cc3C(=O)N(C)[C@H](C(=O)N(C)CCN(C)C)CCC(=O)N(C)CC(=O)N2C1: 100
CN1CC(=O)N2C[C@@H](NC(=O)OC(C)(C)C)C[C@H]2COc2ccc(F)cc2C(=O)N(C)[C@H](C(=O)NCCc2c[nH]c3ccccc23)CCC1=O: 100

* * *

- protocol.details: Metabolic stability, CD-1 mouse microsomes
- Assay type: in vitro ADME
- assay.conditions: % of the initial 0 minutes value at 60 min, 10 μM, 37° C.
- Procedure: Microsomes from a human 50 donor mixed gender pool and 1:1 mixtures of microsomes from CD-1 mouse single-gender pools are purchased from Celsis (Belgium). […] After acetonitrile precipitation (2 volumes) and HPLC/MS/MS analysis metabolic turnover is expressed in % of the initial 0 minutes value and half life T½ (min) is calculated. […]
assay.readout: Metabolic Stability 60 min mouse (%)

CN1CC(=O)N2C[C@@H](NC(=O)CN3CCCC3)C[C@H]2COc2ccc(F)cc2C(=O)N(C)[C@@H](C(=O)N2CCCC2)CCC1=O: 100
CN1C[C@H](NC(=O)OCc2ccccc2)C(=O)N(C)CC(=O)N2C[C@@H](NC(=O)Cc3c[nH]c4ccccc34)C[C@H]2COc2cccc(c2)C1=O: 26
CN(C)CC(=O)N[C@H]1C[C@H]2COc3ccc(F)cc3C(=O)N(C)[C@H](C(=O)NCCc3c[nH]c4ccccc34)CCC(=O)N(C)CC(=O)N2C1: 79

A = CN(C)CC(=O)N[C@@H]1C[C@H]2COc3cccc(c3)C(=O)N(C)C[C@H](NC(=O)Cc3ccc4ccccc4c3)C(=O)N(C)CC(=O)N2C1
B = CN1CC(=O)N2C[C@@H](NC(=O)Cc3c[nH]c4ccccc34)C[C@H]2COc2ccc(F)cc2C(=O)N(C)[C@H](C(=O)NCCc2c[nH]c3ccccc23)CCC1=O
Q: # argmax over Metabolic Stability 60 min mouse for candidates A and B Answer = label.
A: A
(A: 90%, B: 33%)

* * *

- assay.conditions: both, CD-1, mouse, 10 μM
assay.readout: Plasma Stability 240 min mouse (%)

CCN(CC)[C@H]1C[C@H]2COc3ccc(F)cc3C(=O)N(C)[C@H](C(=O)N3CCCC3)CCC(=O)N(C)CC(=O)N2C1: 89
CN1CC(=O)N2C[C@@H](NC(=O)Cc3c[nH]c4ccccc34)C[C@H]2COc2ccc(F)cc2C(=O)N(C)[C@H](C(=O)NCCc2c[nH]c3ccccc23)CCC1=O: 100
CN1CC(=O)N2C[C@@H](N)C[C@H]2COc2ccc(F)cc2C(=O)N(C)[C@@H](C(=O)NCc2ccc3ccccc3c2)CCC1=O: 88
CCN(CC)[C@@H]1C[C@H]2COc3ccc(cc3)C(=O)N(C)[C@H](C(=O)NCc3ccc4ccccc4c3)CCC(=O)N(C)CC(=O)N2C1: 93
CN1CCC[C@H](NC(=O)OCc2ccccc2)C(=O)N2C[C@@H](NC(=O)Cc3ccc4ccccc4c3)C[C@H]2COc2cccc(c2)C1=O: 58
CC(=O)N[C@H]1CN(C)C(=O)c2cccc(c2)OC[C@@H]2C[C@H](NC(=O)CN(C)C)CN2C(=O)CN(C)C1=O: 90
CN1C[C@H](NC(=O)OCc2ccccc2)C(=O)N(C)CC(=O)N2C[C@@H](NC(=O)OC(C)(C)C)C[C@H]2COc2cncc(c2)C1=O: 92
CN1CC(=O)N2C[C@H](NC(=O)Cc3ccc4ccccc4c3)C[C@H]2COc2ccc(cc2)C(=O)N(C)[C@H](C(=O)N2CCCC2)CCC1=O: 88
CN1C[C@H](NC(=O)OCc2ccccc2)C(=O)N(C)CC(=O)N2C[C@@H](NC(=O)Cc3c[nH]c4ccccc34)C[C@H]2COc2cccc(c2)C1=O: 100
CN(C)CCNC(=O)[C@H]1CCC(=O)N(C)CC(=O)N2CCN(C(=O)Cc3ccc4ccccc4c3)C[C@@H]2COc2ccc(F)cc2C(=O)N1C: 78
